Below is a list of entries, each paired with its recorded Kd value.
type: binding; conditions: LacCer monolayer, QCM
measurement_name: Kd

GWWYKGRARPVSAVA [c01-peptide, H-GWWYKGRARPVSAVA-NH2] = 4.8 µM
RAVWRHSVATPSHSV [c03-peptide, H-RAVWRHSVATPSHSV-NH2] = 5.9 µM

Cited source: patent US20090098195A1
